In this section, each of the compounds is paired with its reported melting point.

{"compound": "COc1ccc(C2CCN(c3c(C)c(C)c4c(c3C)C(N3CCc5ccccc5CC3)C(C)(C)O4)CC2)cc1OC (centres undefined)", "melting point": "136 to 138 °C"}
{"compound": "COc1ccc(C2=NN(Cc3ccc(C(=O)NC4CCCC4)cc3)C(=O)CC2)cc1OC", "melting point": "147 °C"}
{"compound": "O=C(Oc1cccc(C(F)(F)F)c1)n1c2c(c(=O)n(C3CCCCO3)c1=O)CCC2 (centres undefined)", "melting point": "130 °C"}
{"compound": "COc1cc(-c2nc(NC(=O)c3cc4cc(C)ccc4n3CC(=O)O)sc2CCC2CCCCC2)c(OC)cc1Cl", "melting point": "204 to 208 °C"}
{"compound": "Cn1c(CC(=O)O)cc2ccc3ccsc3c(=O)c21", "melting point": "185 to 188 °C"}
{"compound": "CC(CC(=O)c1ccc(C(N)=S)cc1)C(=O)N1CCC(OCC(=O)OC(C)(C)C)CC1 (racemic)", "melting point": "152 to 155 °C"}
{"compound": "CCN(CC)C(=O)Cc1c(-c2ccc(OC)cc2)nc2c(C)cc(C)nn12", "melting point": "129 to 131 °C"}
{"compound": "CN1C(=O)C(C(=O)Nc2ccccc2)Sc2ccccc21 (centres undefined)", "melting point": "124 to 126 °C"}
{"compound": "CC(C)C(=O)NCCOc1ccc(N)cc1", "melting point": "99 to 100 °C"}

###

In this section, each of the molecules is paired with its reported melting point.

{"molecule": "CC(=O)OC1CSC(Oc2cncc(-c3cnn(C)c3)c2)C(OC(C)=O)C1OC(C)=O (stereo unspecified)", "melting point": "68 °C"}
{"molecule": "c1ccc(-c2cnccn2)cc1", "melting point": "69 to 70 °C"}
{"molecule": "O=C(O)c1cn(-c2cc([N+](=O)[O-])c(F)cc2F)c2cc(F)c(F)cc2c1=O", "melting point": "> 270 °C"}
{"molecule": "O=C1CNCC2c3ccccc3CCN12 (stereo unspecified)", "melting point": "119 to 120 °C"}
{"molecule": "COc1cc(NC(=O)OC(C)(C)C)c(NC(=O)CC(=O)c2cccc(-n3ccnc3)c2)cc1-c1ccc(F)cc1C", "melting point": "99 to 102 °C"}
{"molecule": "Clc1ccc(Cn2c(-c3ccc4c(c3)OCO4)nc3ccccc32)s1", "melting point": "130 to 131 °C"}
{"molecule": "CCS(=O)Cc1cccc(-c2nc(=O)c3ccccc3s2)n1 (stereo unspecified)", "melting point": "188 to 190 °C"}
{"molecule": "CCn1nnnc1Cc1ccc(N)cc1", "melting point": "94 to 95 °C"}
{"molecule": "O=c1oc(-c2cccc(-c3ccccc3)c2)cc(O)c1Sc1ccc2ccccc2c1", "melting point": "183 to 185 °C"}
{"molecule": "CNC(=S)Nc1cc(F)ccc1N1CCOCC1", "melting point": "145 to 148 °C"}
{"molecule": "CCCn1cc(-c2ccccc2)c(=O)c(-c2ccccc2)n1", "melting point": "94 to 96 °C"}
{"molecule": "O=c1c2c[nH]c3c(c-2nn1-c1ccc(Cl)cc1)CSC3", "melting point": "> 330 °C"}
{"molecule": "Cn1ccnc1Sc1ccc([N+](=O)[O-])cc1F", "melting point": "97 to 99 °C"}
{"molecule": "CC(C)N(C(C)C)S(=O)(=O)N[C@@H](Cc1ccc(Nc2nccc3cnccc23)cc1)C(=O)O", "melting point": "168 °C"}
{"molecule": "CC1CCN2C(=N1)C(=O)c1cc(S(=O)(=O)N3CCCC3)ccc12 (stereo unspecified)", "melting point": "152 to 153 °C"}
{"molecule": "N#Cc1cccc2c1S(=O)(=O)c1ccccc1C2=O", "melting point": "252 to 254 °C"}

The reported measurements were obtained from a melting point compilation (Tetko et al.; mined from patent text by program, amines drawn as free bases though some values may be those of a salt).
